System under test: CDK7/CycH/MNAT1 (Homo sapiens)
Construct: His
Sequence (P51946 whole entry partner, one chain of several): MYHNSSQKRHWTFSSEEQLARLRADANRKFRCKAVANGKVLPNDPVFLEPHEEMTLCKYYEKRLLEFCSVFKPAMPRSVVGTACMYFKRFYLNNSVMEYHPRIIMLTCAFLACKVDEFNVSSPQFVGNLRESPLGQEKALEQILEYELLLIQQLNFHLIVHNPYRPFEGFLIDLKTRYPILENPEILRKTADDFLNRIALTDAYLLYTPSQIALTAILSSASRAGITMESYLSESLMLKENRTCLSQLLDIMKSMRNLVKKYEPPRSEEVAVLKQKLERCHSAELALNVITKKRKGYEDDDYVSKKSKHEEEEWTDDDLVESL
Sequence (P51948 whole entry partner, one chain of several): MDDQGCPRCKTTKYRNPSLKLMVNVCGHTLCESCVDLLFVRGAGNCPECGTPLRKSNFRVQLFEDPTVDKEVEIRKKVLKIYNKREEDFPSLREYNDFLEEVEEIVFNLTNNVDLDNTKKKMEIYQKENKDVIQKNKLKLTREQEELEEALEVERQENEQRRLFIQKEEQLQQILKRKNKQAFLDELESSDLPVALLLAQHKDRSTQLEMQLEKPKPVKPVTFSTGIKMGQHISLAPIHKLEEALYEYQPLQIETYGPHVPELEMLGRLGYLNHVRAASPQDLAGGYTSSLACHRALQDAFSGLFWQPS
Measurement description: Binding assay (FRET, LanthaScreen Eu, Tracer236) for CDK7
Measurement setup: read-out: CDK7 IC50 (enzyme binding assay)
Recorded endpoint: IC50

{"Compound": "Cc1ncsc1-c1ccc(CNC(=O)[C@@H]2C[C@@H](O)CN2C(=O)[C@@H](NC(=O)C2(F)CC2)C(C)(C)C)c(OCCOCCOCCOCCOCCOCCNc2ccc3c(-c4ccccc4CNc4nc(O[C@@H]5CCCNC5)nc5c(C(C)C)cnn45)nccc3c2)c1 [Compound 23]", "IC50": "≤ 100 nM"}

Read the next record carefully.
Given CC(C)c1cnn2c(NCc3ccccc3-c3nccc4cc(NCC5CCN(CC6CCN(c7ccc8c(c7)C(=O)N(C7CCC(=O)NC7=O)C8=O)CC6)CC5)ccc34)nc(O[C@@H]3CCCNC3)nc12 (some centres unmarked) [Compound 30] , respond with its IC50.
≤ 100 nM

* * *

System under test: UniProtKB Q00535
Sequence (Q00535 whole entry): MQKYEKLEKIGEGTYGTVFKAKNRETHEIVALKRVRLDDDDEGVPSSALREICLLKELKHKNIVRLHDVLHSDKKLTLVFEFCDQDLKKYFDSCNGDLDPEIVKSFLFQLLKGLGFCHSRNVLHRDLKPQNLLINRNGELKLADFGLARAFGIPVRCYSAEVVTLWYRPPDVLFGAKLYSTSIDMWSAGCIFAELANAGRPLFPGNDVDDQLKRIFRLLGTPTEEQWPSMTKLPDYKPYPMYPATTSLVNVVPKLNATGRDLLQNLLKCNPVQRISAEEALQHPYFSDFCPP
Sequence (Q15078 99-307 partner limits assumed): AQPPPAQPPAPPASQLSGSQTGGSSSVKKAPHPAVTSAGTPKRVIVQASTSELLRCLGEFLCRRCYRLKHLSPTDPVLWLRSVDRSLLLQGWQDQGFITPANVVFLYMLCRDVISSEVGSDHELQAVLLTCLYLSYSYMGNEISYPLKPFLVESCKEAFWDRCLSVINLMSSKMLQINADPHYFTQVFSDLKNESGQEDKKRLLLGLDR
Recorded endpoint: IC50

{"Compound": "Cc1ncsc1-c1ccc(CNC(=O)[C@@H]2C[C@@H](O)CN2C(=O)[C@@H](NC(=O)C2(F)CC2)C(C)(C)C)c(OCCOCCNc2ccc3c(-c4ccccc4CNc4nc(O[C@@H]5CCCNC5)nc5c(C(C)C)cnn45)nccc3c2)c1 [Compound 20]", "IC50": "> 1000 nM"}
{"Compound": "CC(C)c1cnn2c(NCc3ccccc3-c3nccc4cc(NCCOCCOCCOCCNC(=O)CNc5cccc6c5C(=O)N(C5CCC(=O)NC5=O)C6=O)ccc34)nc(O[C@@H]3CCCNC3)nc12 (stereo partly drawn) [Compound 8]", "IC50": "> 1000 nM"}

Look up and report measured IC50 (UniProtKB Q00535) for the following compound: CC(C)c1cnn2c(NCc3ccccc3-c3nccc4cc(NC(=O)/C=C/CN(C)CCOCCNC(=O)CNc5cccc6c5C(=O)N(C5CCC(=O)NC5=O)C6=O)ccc34)nc(N3CCC(N)CC3)nc12 (stereo not drawn) [Compound 1]
> 1000 nM

* * *

Listing: DC50 of selected molecules
System under test: CDK7 protein (Homo sapiens, UniProt P50613)
Construct: To verify endogenous CDK7 protein degradation; endogenous in cells; host or cells: A2780 (ECACC 93112519)
Sequence (P50613 whole entry): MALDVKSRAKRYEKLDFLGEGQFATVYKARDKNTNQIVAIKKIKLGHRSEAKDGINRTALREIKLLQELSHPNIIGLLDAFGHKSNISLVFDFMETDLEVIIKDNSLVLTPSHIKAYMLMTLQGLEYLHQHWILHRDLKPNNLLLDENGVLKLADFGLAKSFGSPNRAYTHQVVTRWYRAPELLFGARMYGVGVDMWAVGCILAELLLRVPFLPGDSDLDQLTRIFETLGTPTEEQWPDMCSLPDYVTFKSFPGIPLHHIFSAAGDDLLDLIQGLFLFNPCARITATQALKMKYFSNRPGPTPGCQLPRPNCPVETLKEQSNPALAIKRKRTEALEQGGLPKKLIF
Measurement description: Western blot assay for CDK7 protein degradation in A2780 cells;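 also: A is DC50 up to 100 nM B is 100 to 1000 nM C is above 1000 nM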
Type: cell-based
Measurement setup: 24 hours, read-out: Compound concentration that caused 50% CDK7 protein degradation in A2780 cells (DC50)
Experimental: Human ovarian cancer cell line, A2780 (Cat #93112519) was obtained from ECACC. […] To verify endogenous CDK7 protein degradation upon treatment of CDK7-specific degrader, the western blot assay was conducted a 24 hours' time period. […] The protein in lysates were quantified with BCA protein quantification kit (Pierce, Cat #23227) following manufacture's protocol. […]

Example cases with answers are listed next.
{"Molecule": "CC(C)c1cnn2c(NCc3ccccc3-c3nccc4cc(NCC5CCN(CC6CCN(c7ccc8c(c7)C(=O)N(C7CCC(=O)NC7=O)C8=O)CC6)CC5)ccc34)nc(N[C@@H]3CCCNC3)nc12 (stereo partly shown)", "Result": "≤ 100 nM"}
{"Molecule": "Cc1ncsc1-c1ccc(CNC(=O)[C@@H]2C[C@@H](O)CN2C(=O)[C@@H](NC(=O)C2(F)CC2)C(C)(C)C)c(OCCOCCOCCNc2ccc3c(-c4ccccc4CNc4nc(O[C@@H]5CCCNC5)nc5c(C(C)C)cnn45)nccc3c2)c1", "Result": "≤ 100 nM"}
{"Molecule": "Cc1ncsc1-c1ccc([C@H](C)NC(=O)[C@@H]2C[C@@H](O)CN2C(=O)[C@@H](NC(=O)CCOCCOCCOCCNc2ccc3c(-c4ccccc4CNc4nc(O[C@@H]5CCCNC5)nc5c(C(C)C)cnn45)nccc3c2)C(C)(C)C)cc1", "Result": "≤ 100 nM"}

Given CC(C)c1cnn2c(NCc3ccccc3-c3nccc4cc(NCCOCCOCCNC(=O)CNc5cccc6c5C(=O)N(C5CCC(=O)NC5=O)C6=O)ccc34)nc(O[C@@H]3CCCNC3)nc12 (stereo partly shown) , respond with its DC50.
100 to 1000 nM

Each recorded value in this set is attributed to patent US20240343732A1.
